B1: RAB22A (parent)
chain: FVEDSFDPNINPTIGASFMTKTVQ

Variants of: B1
Assay: protein stability index of a GFP-peptide fusion (GPS, HEK-293T) (PSI 1-6); higher = more stable;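 also: lentivirally expressed fusions sorted by FACS into six bins by GFP to DsRed ratio, PSI derived from sequencing read proportions per bin multiplied by bin number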
Settings: c terminus: a fixed tail appended
measurement_name: protein stability index
Lab note: jot the number down without any unit.

Input line: // protein stability index lookup, key: F1M
Output line: 3.61

Input line: # repeat for S17Q
Output line: 2.6

Input line: # repeat for E3M
Output line: 1.84

Input line: # repeat for G15L
Output line: 2.06

Input line: # repeat for T20S
Output line: 2.06

Input line: # repeat for A16C
Output line: 1.8

Input line: # repeat for N9A
Output line: 2.25

Input line: # repeat for T13D
Output line: 2.71

Input line: # repeat for F18V
Output line: 3.07

Input line: # repeat for Q24M
Output line: 1.71

Input line: # repeat for N9D
Output line: 2.73

Input line: # repeat for D7Q
Output line: 1.98

Input line: # repeat for T22Q
Output line: 2.45

Input line: # repeat for D7C
Output line: 1.98

Input line: # repeat for I10E
Output line: 3.02

Input line: # repeat for N11V
Output line: 2.24

Input line: # repeat for D4G
Output line: 2.02

Input line: # repeat for N9R
Output line: 1.95

Input line: # repeat for M19S
Output line: 2.64

Input line: # repeat for M19Q
Output line: 2.38

Input line: # repeat for N11E
Output line: 2.58

Input line: # repeat for K21T
Output line: 2.41

Input line: # repeat for S17M
Output line: 1.74

Input line: # repeat for I10H
Output line: 2.48

Input line: # repeat for N11H
Output line: 1.85

Input line: # repeat for Q24K
Output line: 2.15

Input line: # repeat for F1C
Output line: 3.75

Input line: # repeat for P12K
Output line: 2.42

Input line: # repeat for K21H
Output line: 2.08

Input line: # repeat for S17H
Output line: 2.35

Input line: # repeat for G15Y
Output line: 1.9

Input line: # repeat for M19I
Output line: 2.25

Input line: # repeat for T20R
Output line: 2.12

Input line: # repeat for P8T
Output line: 2.39

Input line: # repeat for S17C
Output line: 2.04

Input line: # repeat for S17K
Output line: 2.29

Input line: # repeat for I14C
Output line: 2.01

Input line: # repeat for T13C
Output line: 1.79

Input line: # repeat for F18M
Output line: 2.65

Input line: # repeat for S5H
Output line: 1.74

Input line: # repeat for N11T
Output line: 2.4

Input line: # repeat for S17W
Output line: 1.96

Input line: # repeat for V2W
Output line: 2.51

Input line: # repeat for V2F
Output line: 2.89

Input line: # repeat for T20Q
Output line: 2.24

Input line: # repeat for E3F
Output line: 2.57
